Just for reference, ChEMBL document CHEMBL2417463 is where these values come from.

# target.desc: UniProt Q60644
# measurement.notes: Agonist activity at LXRbeta in mouse RAW264.7 cells assessed as induction of ABCA1 promoter activation at 1 uM after 24 hrs by Dual-Glo luciferase reporter gene assay relative to vehicle-treated control
# Format: cell-based
quantity: fold change (FC)
Format: numeric value only, no unit, no commentary.

Lab request: please report fold change (FC) under test system UniProt Q60644 for "Cc1ccc(-c2cc(=O)c3ccc(N)cc3o2)s1"
1.47

Further, for "O=c1cc(-c2c[nH]c3ccccc23)oc2cc(O)ccc12" ?
1.9

Thanks! And "CC(=O)Nc1ccc(C(=O)/C=C/c2ccc(C)s2)c(O)c1" ?
1.08

Further, for "COc1cc(/C=C/C(=O)c2ccc(N)cc2O)cc(OC)c1OC" ?
0.98

One more molecule: "Nc1ccc(C(=O)/C=C/c2ccc(F)cc2)c(O)c1"
1.36

Do the same for "COc1cc(N)ccc1C(=O)/C=C/c1ccc(C)o1" please
1.2

Param item: "Cc1ccc(/C=C/C(=O)c2ccc(N)cc2O)o1"
2.09

Similarly, "Nc1ccc(C(=O)/C=C/c2ccc(-c3ccccc3)cc2)c(O)c1" ?
1.55

// next record "O=C(O)Cc1cccc(OCCCN(Cc2cccc(C(F)(F)F)c2Cl)CC(c2ccccc2)c2ccccc2)c1"
1.83

Then "CCOc1ccc(/C=C/C(=O)c2ccc(N)cc2O)cc1" ?
1.92

Also check "Nc1ccc(C(=O)/C=C/c2ccc(Cl)cc2)c(O)c1"
1.16

And CN(CCOc1ccc(CC2SC(=O)NC2=O)cc1)c1ccccn1 (centres undefined) ?
1.19

What do you have for "Nc1ccc(C(=O)/C=C/c2ccc3c(c2)OCO3)c(O)c1" ?
1.92

And then "Nc1ccc(C(=O)/C=C/c2csc3ccccc23)c(O)c1" , what is it?
2.31

Would you kindly repeat that for "O=c1cc(-c2ccc(-c3ccccc3)cc2)oc2cc(O)ccc12" ?
1.15

Follow-up entry: "CC(C)c1ccc(-c2cc(=O)c3ccc(O)cc3o2)cc1"
1.22

And the next one, "COc1ccc(-c2ccc(/C=C/C(=O)c3ccc(N)cc3O)s2)cc1" ?
1.09

Cool, now "CSc1ccc(/C=C/C(=O)c2ccc(N)cc2O)cc1"
1.26

Queued: "COc1cccc(/C=C/C(=O)c2ccc(N)cc2O)c1"
2.09

Then this molecule: "COc1cc(N)ccc1C(=O)/C=C/c1ccc2ccccc2c1"
0.88

Also "Nc1ccc(C(=O)/C=C/c2cccc(Oc3ccccc3)c2)c(O)c1" , if possible.
1.76

Same lookup for "Cc1ccc(/C=C/C(=O)c2ccc(N)cc2O)s1" , please.
2

"O=c1cc(-c2ccc3ccccc3n2)oc2cc(O)ccc12" ?
1.36

Entry "COc1cc(N(C)C)ccc1C(=O)/C=C/c1ccc2ccccc2c1" please
1.35

----------
# target.desc: Oxysterols receptor LXR-beta (Mus musculus) (UniProt Q60644)
# Sequence (Q60644 whole entry): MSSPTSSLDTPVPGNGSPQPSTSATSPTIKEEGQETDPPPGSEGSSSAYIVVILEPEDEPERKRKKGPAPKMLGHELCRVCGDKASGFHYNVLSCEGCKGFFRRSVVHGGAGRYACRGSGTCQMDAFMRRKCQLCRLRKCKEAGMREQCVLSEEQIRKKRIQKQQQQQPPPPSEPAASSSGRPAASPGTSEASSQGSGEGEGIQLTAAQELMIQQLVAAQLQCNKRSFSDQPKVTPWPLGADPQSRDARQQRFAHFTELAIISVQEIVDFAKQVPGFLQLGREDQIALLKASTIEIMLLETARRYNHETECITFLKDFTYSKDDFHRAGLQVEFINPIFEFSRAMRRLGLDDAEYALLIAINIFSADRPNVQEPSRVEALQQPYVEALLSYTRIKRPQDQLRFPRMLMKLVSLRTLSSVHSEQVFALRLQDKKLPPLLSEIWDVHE
# measurement.notes: Agonist activity at LXRbeta in mouse BV2 cells assessed as degradation of intracellular soluble amyloid beta42 at 1 uM preincubated for 18 hrs followed by soluble amyloid beta42 addition measured after 24 hrs by ELISA relative to vehicle-treated control
# Assay type: cell-based
# condition: BV-2
# thresholds on Activity define classes: low (below 30%), intermediate (30% to below 40%), high (40% or more)

Lab log: "O=c1cc(-c2c[nH]c3ccccc23)oc2cc(O)ccc12" — assign Activity category
intermediate

And then "Cc1ccc(/C=C/C(=O)c2ccc(N)cc2O)o1" , what is it?
high

Now consider "Cc1ccc(/C=C/C(=O)c2ccc(N)cc2O)s1" .
intermediate

Please answer likewise for "O=c1cc(-c2ccc3ccccc3c2)oc2cc(O)ccc12"
low

And "O=C(O)Cc1cccc(OCCCN(Cc2cccc(C(F)(F)F)c2Cl)CC(c2ccccc2)c2ccccc2)c1" ?
high

What about "CCOc1ccc(/C=C/C(=O)c2ccc(N)cc2O)cc1" ?
low

Subsequent entry: "O=C(O)c1ccc(-c2cc(=O)c3ccc(O)cc3o2)cc1"
low

Queued: "CCOc1ccc(/C=C/C(=O)c2ccc(N)cc2O)cc1OC"
low

Another compound: "Nc1ccc(C(=O)/C=C/c2ccc3ccccc3c2)c(O)c1"
intermediate

Further, for "COc1cccc(/C=C/C(=O)c2ccc(N)cc2O)c1" ?
intermediate

Similarly, "Nc1ccc(C(=O)/C=C/c2csc3ccccc23)c(O)c1" ?
high
